Measured values drawn from the supplement of paper PMC10724198 for this set.

tested on: Saccharomyces cerevisiae; experiment: protein stability index of tFT-peptide fusion (C-terminal peptide) (PSI (0-1 scale)); higher = more stable (slower turnover); conditions: genetic background: wild type; temperature: 30 C;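 note: PSI is a weighted mean of sequencing reads over stability bins, variants kept only with over 10 reads, mCherry proximal and sfGFP distal, peptide attached via GGGS linker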
property_label: protein stability index
Keep the answer to the number alone.

Sample `CGVHQSRATPMS` ; protein stability index observed: 0.663

The value of protein stability index measured for the sequence `SKLTKQQKRTKS` turned out to be 0.665

// `WVYVFVSLFFVV` : protein stability index value = 0.263

Measured protein stability index of `SGLPRLLLVILP` : 0.61

Query `PPFLYVLVSSIL` yields protein stability index of 0.54

// `TQNYPSAFAIPA` : protein stability index value = 0.552

The recorded protein stability index for entry `DERLEIKERLEF` equals 0.739

Note to self: protein stability index recorded for `HVRLRFQPVLFV` was 0.462

Measured protein stability index of `KKNKKKKEKKAK` : 0.625

Memo: `DRREKAKNMTKG` , reported protein stability index: 0.67

protein stability index measured on `PPPPPTRPPTRV` = 0.68

According to the records, this sequence `EGKKEKKGSKGE` displays protein stability index of 0.708

The measured protein stability index associated with `DEFRVALGSVTC` reads 0.65

Summary for this sequence, `IRLLNKAACVTM` : protein stability index is 0.742

The value of protein stability index measured for the sequence `TKKNKTKKGQNK` turned out to be 0.71

Quick note, protein stability index for `GRQVTSTLTKLL` landed at 0.617

The reported protein stability index of the sequence `CGSVERAEKGHI` was 0.662

For `NKKETRKQKTKK` the sequence record lists protein stability index as 0.673

GET /value?item= `SQMGRGRQRGDR` &field=protein stability index returns 0.741
